Data provenance is patent US20250281424A1.

Please respond with reported EC50 at 1 h for every item in the list.
- assay-comment: Cytotoxicity NIH3T3 (MTS reduction)
- Assay type: cell-based
- experimental-parameters: mouse, NIH3T3 cells, 1 hour exposure in the absence of serum, N = 3, read-out: Cytotox NIH3T3 EC50

So what does the record say about EC50 at 1 h for CCOC(=O)C1C(=O)c2ccc(C(=O)c3ccc4c(c3)C(=O)C(C(=O)OCC)C4=O)cc2C1=O (centres unmarked) ?
> 500 µg/mL

So what does the record say about EC50 at 1 h for CCCNC(=O)C1C(=O)c2ccc(C(=O)c3ccc4c(c3)C(=O)C(C(=O)NCCC)C4=O)cc2C1=O (centres unmarked) ?
> 1000 µg/mL

So what does the record say about EC50 at 1 h for CC(=O)C1C(=O)c2ccc(C(=O)c3ccc4c(c3)C(=O)C(C(C)=O)C4=O)cc2C1=O (centres unmarked) ?
> 1000 µg/mL

So what does the record say about EC50 at 1 h for O=C(c1ccc2c(c1)C(=O)CC2=O)c1ccc2c(c1)C(=O)CC2=O ?
> 250 µg/mL

So what does the record say about EC50 at 1 h for CC(=O)C1(C(=O)OC(C)(C)C)C(=O)c2ccc(Oc3ccc4c(c3)C(=O)C(C(C)=O)(C(=O)OC(C)(C)C)C4=O)cc2C1=O (centres unmarked) ?
> 3350 µg/mL

====

- assay-comment: Pharmacokinetics after IV bolus in CD-1 mice
- Format: in vivo
- experimental-parameters: mouse, plasma; CD-1 mice, 1 mg/kg IV bolus; read-out: Volume of distribution (Vdss)
value-type: Vd (L/kg)
State just the number; it will be interpreted in L/kg.

So what does the record say about Vd for CC(=O)C1C(=O)c2ccc(C(=O)c3ccc4c(c3)C(=O)C(C(C)=O)C4=O)cc2C1=O (stereo not shown) [Example 1] ?
0.448

====

- measured-target: human PF4 (Homo sapiens, UniProt P02776)
- Construct: PF4 is a 70 amino acid, lysine-rich 7.8 kDa platelet-specific protein; made in house; host or cells: Escherichia coli BL21DE3 pLysS (pT7-7) and/or Drosophila S2 cells
- Sequence (P02776 32-101): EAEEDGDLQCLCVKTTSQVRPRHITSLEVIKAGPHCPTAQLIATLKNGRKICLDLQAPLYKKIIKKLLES
- assay-comment: Inhibition of PF4 tetramer formation (BS3 cross-linking, SDS-PAGE)
- Assay type: biochemical
- experimental-parameters: read-out: IC50 of PF4 tetramer formation inhibition
Please respond with reported IC50 for every item in the list.
State just the number; it will be interpreted in nM.

Item: CCOC(=O)C1(C(C)=O)C(=O)c2ccc(Oc3ccc4c(c3)C(=O)CC4=O)cc2C1=O (stereo not drawn) Test system: human PF4 (Homo sapiens, UniProt P02776) Read-out: IC50 Value: ?
1050

Item: O=C(c1ccc2c(c1)C(=O)C(C(=O)NCCc1ccc3c(c1)OCO3)C2=O)c1ccc2c(c1)C(=O)C(C(=O)NCCc1ccc3c(c1)OCO3)C2=O (stereo not drawn) Test system: human PF4 (Homo sapiens, UniProt P02776) Read-out: IC50 Value: ?
1810

Item: CC(C)(C)OC(=O)N1CCCC[C@H]1C(=O)C1C(=O)c2ccc(C(=O)c3ccc4c(c3)C(=O)C(C(=O)[C@@H]3CCCCN3C(=O)OC(C)(C)C)C4=O)cc2C1=O (stereo partly drawn) Test system: human PF4 (Homo sapiens, UniProt P02776) Read-out: IC50 Value: ?
1000

Item: CS(=O)(=O)N1CCC(NC(=O)C2C(=O)c3ccc(S(=O)(=O)c4ccc5c(c4)C(=O)C(C(=O)NC4CCN(S(C)(=O)=O)CC4)C5=O)cc3C2=O)CC1 (stereo not drawn) Test system: human PF4 (Homo sapiens, UniProt P02776) Read-out: IC50 Value: ?
1350

Item: N[C@H](C(=O)C1C(=O)c2ccc(C(=O)c3ccc4c(c3)C(=O)C(C(=O)[C@@H](N)C3CC3)C4=O)cc2C1=O)C1CC1 (stereo partly drawn) Test system: human PF4 (Homo sapiens, UniProt P02776) Read-out: IC50 Value: ?
3400

Item: O=C(c1ccc2c(c1)C(=O)C(C(=O)Nc1ccc(Cl)cc1)C2=O)c1ccc2c(c1)C(=O)C(C(=O)Nc1ccc(Cl)cc1)C2=O (stereo not drawn) Test system: human PF4 (Homo sapiens, UniProt P02776) Read-out: IC50 Value: ?
1400
